# assayed-system: human ether-à-go-go-related gene (hERG) potassium channel (human);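 further: peak tail current of the secondary pulse compared with the same well before compound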
# Sequence (Q12809 whole entry, looked up): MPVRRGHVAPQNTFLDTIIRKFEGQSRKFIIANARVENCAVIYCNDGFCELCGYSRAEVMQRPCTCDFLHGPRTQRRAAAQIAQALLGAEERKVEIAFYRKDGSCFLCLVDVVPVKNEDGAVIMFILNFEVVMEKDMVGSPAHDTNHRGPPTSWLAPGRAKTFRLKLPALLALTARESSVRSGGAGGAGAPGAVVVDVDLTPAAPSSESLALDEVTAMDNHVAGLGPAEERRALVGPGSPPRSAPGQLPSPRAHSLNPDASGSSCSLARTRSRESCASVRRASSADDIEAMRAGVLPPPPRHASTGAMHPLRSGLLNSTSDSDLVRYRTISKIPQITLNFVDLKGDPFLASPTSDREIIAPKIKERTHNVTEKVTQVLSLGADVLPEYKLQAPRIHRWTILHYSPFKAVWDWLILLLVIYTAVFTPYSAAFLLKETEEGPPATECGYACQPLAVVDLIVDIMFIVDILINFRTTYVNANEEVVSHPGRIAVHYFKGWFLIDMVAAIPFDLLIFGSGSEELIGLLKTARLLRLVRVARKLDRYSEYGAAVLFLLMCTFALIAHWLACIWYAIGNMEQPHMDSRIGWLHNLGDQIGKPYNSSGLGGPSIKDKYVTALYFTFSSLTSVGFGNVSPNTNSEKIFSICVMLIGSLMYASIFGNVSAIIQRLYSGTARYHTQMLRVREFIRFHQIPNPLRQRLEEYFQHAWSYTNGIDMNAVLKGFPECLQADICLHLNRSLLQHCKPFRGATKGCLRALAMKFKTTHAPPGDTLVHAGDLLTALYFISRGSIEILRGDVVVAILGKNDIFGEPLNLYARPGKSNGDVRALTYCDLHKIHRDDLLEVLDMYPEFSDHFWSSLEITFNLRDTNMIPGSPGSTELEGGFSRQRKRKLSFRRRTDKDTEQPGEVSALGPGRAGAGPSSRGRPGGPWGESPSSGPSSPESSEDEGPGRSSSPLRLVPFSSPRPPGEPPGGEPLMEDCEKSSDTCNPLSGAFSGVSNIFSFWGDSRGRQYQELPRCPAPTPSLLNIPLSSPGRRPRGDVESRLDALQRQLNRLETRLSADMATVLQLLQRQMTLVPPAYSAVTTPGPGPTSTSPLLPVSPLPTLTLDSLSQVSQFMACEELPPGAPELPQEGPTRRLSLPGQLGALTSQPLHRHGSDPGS
# procedure-text: primary screen, population patch clamp on CHO cells stably expressing hERG; higher = less effect of the substance
Out of some 310,000 compounds screened, about 14,000 (4.5%) showed an effect of 50% or more. Effects have a minus sign here. Shown is part of a subset that was picked to be rich in strong results.
Would you mind telling me the reported hERG current change (%, negative = inhibition) at 10uM of each entry?
One number for each entry, in %.

CCCCOC(=O)C(C#N)c1nc2ccccc2nc1N1CCOCC1 (stereo not shown): -12.8
O=C(CN1CCN(Cc2ccccc2Cl)CC1)N/N=C/c1ccccn1: -25.8
CC1CCCN(C(=O)COC(=O)CNC(=O)c2ccc(Br)cc2)C1 (stereo not shown): -8.3
Cc1ccc(NC(=O)C2CCCN(S(=O)(=O)c3c(C)noc3/C=C/N(C)C)C2)cc1F (stereo not shown): -1.44
O=[N+]([O-])c1ccc(N=Nc2c(Cl)cc(O)cc2Cl)cc1: 18.2
O=c1c(Cl)c(NCc2ccccc2Cl)cnn1C12CC3CC(CC(C3)C1)C2: -5.06

Provide hERG current change (%, negative = inhibition) at 10uM for all items below, preserving their order.
1. C/C(=N\NC(=O)CN1CCN(Cc2ccc(C)cc2)CC1)c1ccncc1
2. CN1CCN(c2nc3ccccc3nc2C(C#N)C(=O)OC2CCCCC2)CC1 (stereo not shown)
3. O=C(O)c1cc([N+](=O)[O-])ccc1N1CCCCC1
4. C/C(=N/NC(=O)CN1CCN(Cc2ccccc2Cl)CC1)c1cccnc1
5. CCCCCCOC(=O)C(C#N)c1nc2ccccc2nc1N1CCN(CC)CC1 (stereo not shown)
6. CCc1cccc2c(C(=O)COC(=O)c3nccnc3N)c[nH]c12
7. Cc1nc(C)c(-c2ccc(SCc3cccc(F)c3)nn2)s1
8. O=C1CN=C(c2ccc(Br)cc2)c2c(sc3c2CCCC3)N1CCN1CCCCC1

*A*
-74.8
-79.5
-1.28
-10.4
-70.2
-5.69
-50.6
-64.4
